Test system: sRANKL mediated TRAP activity (osteoclastogenesis), RAW 264.7
method-summary: sRANKL mediated osteoclastogenesis: TRAP activity in RAW 264.7 cells
test-settings: Mus musculus, RAW264.7, read-out: % TRAP Activity average
observation-type: activity at 5 µg/mL (%)
Unit % implied. Number only.

Bench note: what activity at 5 µg/mL did O=C(CCc1ccc(O)cc1)c1c(O)cc(O)cc1O[C@@H]1O[C@H](CO)[C@@H](O)[C@H](O)[C@H]1O show?
103

Bench note: what activity at 5 µg/mL did O=c1c(-c2ccc(O)cc2)coc2cc(O)cc(O)c12 show?
91

Bench note: what activity at 5 µg/mL did CC1(C)C=Cc2c(ccc3c2OC[C@@H](c2ccc(O)cc2O)C3)O1 show?
82

---

Record form. Attribute: activity at 10 µg/mL. Fill in for each entry.
Test system: sRANKL mediated TRAP activity (osteoclastogenesis), RAW 264.7
method-summary: sRANKL mediated osteoclastogenesis: TRAP activity in RAW 264.7 cells
test-settings: Mus musculus, RAW264.7, read-out: % TRAP Activity average
Unit % implied. Number only.

Bench note: what activity at 10 µg/mL did CC1(C)C=Cc2c(ccc3c2OC[C@@H](c2ccc(O)cc2O)C3)O1 show?
75

Bench note: what activity at 10 µg/mL did O=c1c(-c2ccc(O)cc2)coc2cc(O)cc(O)c12 show?
72

Bench note: what activity at 10 µg/mL did O=c1c(O)c(-c2ccc(O)c(O)c2)oc2cc(O)cc(O)c12 show?
62

Bench note: what activity at 10 µg/mL did C[C@@H]1O[C@@H](OC[C@H]2O[C@@H](Oc3c(-c4ccc(O)c(O)c4)oc4cc(O)cc(O)c4c3=O)[C@H](O)[C@@H](O)[C@@H]2O)[C@H](O)[C@H](O)[C@H]1O show?
74

---

System: sRANKL mediated TRAP activity (osteoclastogenesis), RAW 264.7
method-summary: sRANKL mediated osteoclastogenesis: TRAP activity in RAW 264.7 cells
test-settings: Mus musculus, RAW264.7, read-out: % TRAP Activity average
observation-type: activity at 5 µg/mL (%)
Unit % implied. Number only.

Bench note: what activity at 5 µg/mL did C[C@@H]1O[C@@H](OC[C@H]2O[C@@H](Oc3c(-c4ccc(O)c(O)c4)oc4cc(O)cc(O)c4c3=O)[C@H](O)[C@@H](O)[C@@H]2O)[C@H](O)[C@H](O)[C@H]1O [Rutin] show?
106

Bench note: what activity at 5 µg/mL did N[C@H]1C(O)O[C@H](CO)[C@@H](O)[C@@H]1O (stereo partly shown) [Glucosamine] show?
75

Bench note: what activity at 5 µg/mL did O=c1c(O)c(-c2ccc(O)c(O)c2)oc2cc(O)cc(O)c12 [Quercetin] show?
73

Bench note: what activity at 5 µg/mL did COc1ccc2cc3[n+](cc2c1OC)CCc1cc2c(cc1-3)OCO2 [Berberine] show?
4

Bench note: what activity at 5 µg/mL did Oc1ccc(C=Cc2cc(O)cc(O)c2)cc1 [Resveratrol] show?
11

Bench note: what activity at 5 µg/mL did C/C=C1/[C@H](O[C@@H]2O[C@H](CO)[C@@H](O)[C@H](O)[C@H]2O)OC=C(C(=O)OC)[C@H]1CC(=O)OCCc1ccc(O)c(O)c1 [Oleuropein] show?
82

Bench note: what activity at 5 µg/mL did CC1(C)CC[C@]2(C(=O)O)CC[C@]3(C)C(=CC[C@@H]4[C@@]5(C)CC[C@H](O)C(C)(C)[C@@H]5CC[C@]43C)[C@@H]2C1 [Oleanolic Acid] show?
61

---

Tested on: sRANKL mediated TRAP activity (osteoclastogenesis), RAW 264.7
method-summary: sRANKL mediated osteoclastogenesis: TRAP activity in RAW 264.7 cells
test-settings: 1 ug/mL test compound; RAW 264.7 cells; sRANKL alone normalized to 100%
observation-type: % TRAP activity average (sRANKL induced TRAP activity) (%)
Unit % implied. Number only.

Bench note: what % TRAP activity average (sRANKL induced TRAP activity) did CC(C)Oc1ccc2c(=O)c(-c3ccccc3)coc2c1 [Ipriflavone, reference compound] show?
168

Bench note: what % TRAP activity average (sRANKL induced TRAP activity) did CC1(C)CC[C@]2(C(=O)O)CC[C@]3(C)C(=CC[C@@H]4[C@@]5(C)CC[C@H](O)C(C)(C)[C@@H]5CC[C@]43C)[C@@H]2C1 show?
139

Bench note: what % TRAP activity average (sRANKL induced TRAP activity) did N[C@H]1C(O)O[C@H](CO)[C@@H](O)[C@@H]1O (some centres unmarked) show?
179

Bench note: what % TRAP activity average (sRANKL induced TRAP activity) did COc1ccc2cc3[n+](cc2c1OC)CCc1cc2c(cc1-3)OCO2 show?
68

Bench note: what % TRAP activity average (sRANKL induced TRAP activity) did Oc1ccc(C=Cc2cc(O)cc(O)c2)cc1 show?
117
